Test system: T47D
experiment summary: NCI tumour cell line growth inhibition, 48 h
Activity calls are given as the source filed them. Rule as the data show it: active = GI50 up to about 1.1 µM and inactive = higher.
Permitted responses: yes (1) for active, no (0) for inactive

Observe how each entry below is paired with its result.
compound	assayed system	label value
O=C(Cc1ccc([N+](=O)[O-])cc1)OCC#CCOC(=O)Cc1ccc([N+](=O)[O-])cc1	T47D	no (0)
Clc1cc2nc(C3CCCCO3)[nH]c2cc1Cl (centres undefined)	T47D	no (0)
CC#CC(O)(C(=O)OC1CCC2CCC1N2C)C1CCCC1 (centres undefined)	T47D	no (0)
Oc1cc(-c2cccc(OC(F)(F)F)c2)nc2ccc(N3CCCC3)cc12	T47D	no (0)
O=c1c2cc(Cl)ccc2n2nnc3ccc(NCCNCCO)c1c32	T47D	no (0)
CCOC(=O)c1cn(-c2ccc(Cl)cc2)c(=O)n2c1nc1ccccc12	T47D	no (0)
N=C(N)NS(=O)(=O)c1ccc(NC(=O)c2ccc3nc4ccccc4c(O)c3c2)cc1	T47D	no (0)
COc1ccc(C2=Nn3c(nc4sc5c(c4c3=O)CCCC5)SC2)cc1	T47D	no (0)

**Query** // return assay outcome for CN(C)CCCn1c2ccccc2c2cnccc21
**Result** no (0)

**Query** // return assay outcome for CCCCCCN(CCCCCC)CCC(=O)c1ccc2cc(Br)c3ccccc3c2c1
**Result** no (0)

**Query** // return assay outcome for COc1nc(C(Cl)(Cl)Cl)c(Cl)c(O)c1Cl
**Result** no (0)

**Query** // return assay outcome for CCOC(=O)c1cnc2[nH]ccn2c1=O
**Result** no (0)

**Query** // return assay outcome for CC[C@H]1C=CCC[C@@]2(C[C@@H]3CC[C@@H]4[C@H](C(=O)OCCCCCCCCCCCCCCCC(=O)N(CCCN)C[C@@H](O)CCN)[C@]5(CCC[C@@H](C)O5)NC(=[N+]34)N2)O1
**Result** yes (1)

###

Tested on: SR
experiment summary: NCI tumour cell line growth inhibition, 48 h
Activity calls are given as the source filed them. Cut-off read from the data, not from the text of the source: active = GI50 up to about 1.1 µM and inactive = higher.
Permitted responses: 1 for active, -1 for inactive

                                   compound  assayed_system  label_value
0  Cc1ccc(NC(=O)/C(Cc2cc(=O)oc3cc(O)ccc23)=N\NC(C)(C)C)cc1C              SR           -1
1  Cc1cc([N+](=O)[O-])ccc1Sc1c2ccccc2nc2cc(Cl)ccc12              SR           -1
2  CCOc1ccc2c(c1)[n+]([O-])c(-c1ccc(Cl)cc1)c(N)[n+]2[O-]              SR           -1

**Query** // return assay outcome for CC(C)CCCC(C)[C@H]1CC[C@H]2n3c(nc4ccccc43)CCC[C@]12C (stereo not given in full)
**Result** -1

**Query** // return assay outcome for COC(c1ccc(C(C)(C)C)cc1)(c1ccc(C(C)(C)C)cc1)c1ccc(C(C)(C)C)cc1
**Result** -1

**Query** // return assay outcome for O=[N+]([O-])c1ccc(N2C[N+](c3ccccc3)=NC(c3ccccc3)=N2)cc1
**Result** -1

**Query** // return assay outcome for CCC1(O)C(=O)OCc2c1cc1n(c2=O)Cc2cc3ccc(C=O)cc3nc2-1 (stereo not given)
**Result** 1

**Query** // return assay outcome for OC(NN=C1CCCC1)(C(F)(F)Cl)C(F)(F)Cl
**Result** -1

**Query** // return assay outcome for CC(=O)OCC1OC(n2cnc(C(N)=S)c2N)C(OC(C)=O)C1OC(C)=O (stereo not given)
**Result** -1

**Query** // return assay outcome for COc1cc(O)c2c(=O)c(OC)c(-c3ccc4c(c3)OCO4)oc2c1
**Result** -1
